Molecular target: Procathepsin L (Homo sapiens)
Sequence (P07711 whole entry): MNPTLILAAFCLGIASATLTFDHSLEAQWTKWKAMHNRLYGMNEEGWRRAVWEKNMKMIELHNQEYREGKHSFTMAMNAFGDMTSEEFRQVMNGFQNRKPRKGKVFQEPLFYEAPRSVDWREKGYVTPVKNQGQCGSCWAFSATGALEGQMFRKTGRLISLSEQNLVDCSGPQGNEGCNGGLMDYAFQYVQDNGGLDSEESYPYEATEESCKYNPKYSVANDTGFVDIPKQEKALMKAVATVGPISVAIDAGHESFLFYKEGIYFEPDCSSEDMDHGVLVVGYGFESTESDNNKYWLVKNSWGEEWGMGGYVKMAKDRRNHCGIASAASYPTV
experimental-readout: pKi
pKi is a log-scale quantity: -log10 of the concentration expressed in molar.

Solved cases (3 shown):
- compound: "CC(C)N1CC(=O)C(NC(=O)[C@H](Cc2ccccc2)NC(=O)OCc2ccccc2)CC1=O (some centres undefined)"
  pKi: 6.22
- compound: "CCCN1CC(=O)C(NC(=O)[C@H](Cc2ccccc2)NC(=O)OCc2ccccc2)CC1=O (some centres undefined)"
  pKi: 6.63
- compound: "O=C(N[C@@H](Cc1ccccc1)C(=O)NC1CC(=O)N(CCc2ccccc2)CC1=O)OCc1ccccc1 (stereo in doubt; 4f)"
  pKi: 7.03

API: the following record is the query input.
Query: For Procathepsin L (Homo sapiens), provide pKi of O=C(N[C@@H](Cc1ccccc1)C(=O)NC1CC(=O)N(Cc2ccccc2)CC1=O)OCc1ccccc1 (stereo in doubt; 4g) please.
Reply: 6.42

====

Overview of reported Ki across a group of molecules:
Molecular target: UniProt P07858
The figure you give is taken to be in µM; do not add the unit.

- molecule: "CC(C)N1CC(=O)C(NC(=O)[C@H](Cc2ccccc2)NC(=O)OCc2ccccc2)CC1=O (some centres undefined)"
  unit-spec: "µM"
  Ki: 12.9
- molecule: "CC(C)CN1CC(=O)C(NC(=O)[C@H](Cc2ccccc2)NC(=O)OCc2ccccc2)CC1=O (some centres undefined)"
  unit-spec: "µM"
  Ki: 4.55

Now, please, on to the next molecule.
Query: Could you tell me which Ki is on file for CCCN1CC(=O)C(NC(=O)[C@H](Cc2ccccc2)NC(=O)OCc2ccccc2)CC1=O (some centres undefined) ?
Reply: 10.5
